Below, each entry is listed alongside its reported growth.
Tested on: SNB-75 CNS
Test: NCI-60 one-dose screen, 48 h (100 = growth as untreated, 0 = no growth, -100 = all killed)
Conditions: 10 µM unless noted
Description: Growth inhibition of the SNB-75 human tumor cell line is measured as a screen for anti-cancer activity. Cells are grown in 96 well plates and exposed to the test compound for 48 hours. Compounds are tested at a single concentration, which is 10^-5 M for most compounds. The reported endpoint is percent growth (GI% or GIPRCNT), where numbers from 0 - 100% represent growth inhibition, and numbers from -100% - 0 represent cell death. For example, a value of 40 represents 60% growth inhibition. […]
The panel holds about 83,000 compounds, 20% with a hit somewhere; the sample as a whole holds those more often.
State the answer as a number, implicitly in %.

Consider the reported growth for these compounds:
{"columns": ["COMPOUND", "MEASURED"],
 "data": [
  ["COc1ccccc1CNc1c2ccccc2nc2ccccc12", 63.5],
  ["O=C1C(Cl)=C(Nc2ccc(S(=O)(=O)N3CCOCC3)cc2)C(=O)c2ccccc21", 71.3],
  ["N=C(N)c1ccc(-c2ccc(-c3ccc(Cl)c(Cl)c3)s2)nc1", 84.8]
]}

input: Any idea what growth was measured for CN1CCN(C(=O)c2ccc(NC(=O)c3cc4c(nn3)NCCN4Cc3cc(Cl)ccc3Cl)cc2)CC1 ?
output: 79.4

input: Give its growth value. Item: Cc1ccc(C)n1-c1ccccc1-n1c(C)ccc1C
output: 87.2

input: Recorded growth of COCCn1cc(-c2nc(-c3cc4cccnc4[nH]3)cs2)c2cc(OC)ccc21 , please.
output: 9.81

input: Can you look up the measured growth of CC(C)=CCCC(C)c1ccc(C)c2c1OCN(CCCCCO)C2 (stereo not given) for me?
output: 85.6

input: Recorded growth for CC1CCc2c(C(=O)Nc3ncc(Cc4cccc([N+](=O)[O-])c4)s3)csc2C1 (stereo not given) , please?
output: -14.6

input: May I ask what growth has been recorded for Nc1ncnc2c1N=C(c1ccc(Br)cc1)CC(c1cccc(Nc3ccnc4cc(C(F)(F)F)ccc34)c1)N2 (stereo not given) ?
output: 66.2

input: Value lookup for growth; key = COc1ccc(-c2cc(-c3cccnc3)nc3sc4c(=O)[nH]c(-c5ccc(Cl)cc5)nc4c23)cc1OC
output: 87.4

###

Parameter: growth. Scope: all listed entries.
Test system: BT-549 breast
Assay: NCI-60 one-dose screen, 48 h (100 = growth as untreated, 0 = no growth, -100 = all killed)
Conditions: 10 µM unless noted
About 83,000 compounds went through this panel and 20% of them were active in at least one assay; those are over-represented in the sample as a whole.
Number in %, nothing else.

Worked examples follow.
{"columns": ["COMPOUND", "growth [%]"],
 "data": [
  ["Cc1cc(N2CCN(CCNc3ccnc4cc(Cl)ccc34)CC2)nc(N2CCOCC2)n1", 74.2],
  ["C[C@@H](CO)[C@@H]1CCC=C2CC[C@]3(C)[C@H](CC[C@@H]4[C@@]5(C)CCCNC(C)(C)[C@@H]5CC[C@]43C)[C@H]21", 81.5],
  ["CCOC(=O)C/C(=N\\Nc1cc(=O)[nH]c2ccc(Br)cc12)C(=O)OCC", 96.6],
  ["O=C1NC2(Nc3ccccc31)C(=O)Nc1c(Cl)cc(Cl)cc12 (stereo not given)", 99.3],
  ["CN1CCc2nc3sc(C(N)=O)c(N)c3c(-c3cccs3)c2C1", 10.7]
]}

input: Entry NC(=O)c1cc(I)ccc1NC(=O)/C=C/c1ccccc1 : reported growth = ?
output: 61.5

input: Find the recorded growth belonging to COc1ccc(/C=N\Nc2nc(SCCC(C)C)nc(-c3ccc(OC)cc3)c2C#N)cc1 and report it.
output: 93.1

input: Give its growth value. Item: C#Cc1c2c(c(OC)c3c1OCO3)[C@H]([C@H]1OC(=O)c3c1ccc(OC)c3OC)N(C)CC2
output: 90

input: Returns the measured growth for the input compound. Input: COC12C=C/C(=C(/C(=O)OCc3ccncn3)C(=O)CCCCCCCCC3(OC)C=C/C(=C(/C(=O)OCc4ccncn4)C(=O)CCCCCCCC1)O3)O2
output: -27.1

input: Returns the measured growth for the input compound. Input: Nc1ncnc2c1c(-c1cccc(Cl)c1)nn2CC(=O)N1CCOCC1
output: 97.2

input: Which growth value is on record for O=C1C(Cl)=C(Nc2ccc(S(=O)(=O)N3CCOCC3)cc2)C(=O)c2ccccc21 ?
output: 45.9

input: Quick one: growth for Nc1[nH]n2cc(-c3ccccc3)nc2c1N=Nc1ccc(S(N)(=O)=O)cc1 ?
output: 59.5

input: For the compound shown here, CSc1nc(N)c(NS(=O)(=O)c2ccc(C(C)=O)cc2)c(=O)[nH]1 , give the reported growth.
output: 98.4

###

Recorded growth by entry
Test system: SK-MEL-28 melanoma
Assay: NCI-60 one-dose screen, 48 h (100 = growth as untreated, 0 = no growth, -100 = all killed)
Settings: 10 µM unless noted
This is part of a sample that, as a whole, favours compounds with a hit. Of some 83,000 tested, about 20% had one in any assay. Active and inactive are the calls of the source. The calls were made as follows: active = growth percent below 10; inactive = the rest.

{"columns": ["COMPOUND", "growth"],
 "data": [
  ["Nc1n[nH]c2ccc([C@H]3[C@@H]4C5CCC(C5)[C@@H]4c4c(ccc5[nH]ncc45)N3S(=O)(=O)C3CC3)cc12 (some centres not stated)", "52.7% (inactive)"],
  ["CC(C)c1ccc(-n2c(=S)[nH]c3sc4cc(O)ccc4c3c2=O)cc1", "103% (inactive)"],
  ["CCCNc1nc2ccccc2c2c1S(=O)(=O)c1ccc(Cl)cc1C2=O", "32.8% (inactive)"],
  ["COc1ccc(-c2nc3c(ncc4ccc(=O)[nH]c43)s2)cc1", "87.6% (inactive)"],
  ["C#Cc1c2c(c(OC)c3c1OCO3)[C@H]([C@H]1OC(=O)c3c1ccc(OC)c3OC)N(C)CC2", "95.1% (inactive)"],
  ["NS(=O)(=O)c1ccc(N=Nc2c(O)n(Cc3ccccc3)c3ccc(Cl)cc23)cc1", "93.2% (inactive)"],
  ["CC(=O)c1c(C)nc2ccccc2c1/C=C/c1ccc(F)cc1", "114% (inactive)"],
  ["O=C(Nc1nc(-c2ccc(Cl)cc2)nc2c1sc(=S)n2-c1ccccc1)C(F)(F)F", "78.9% (inactive)"]
]}

input: Any idea what growth was measured for COc1ccc2cc1Oc1ccc(cc1)C[C@H]1c3c(cc4c(c3Oc3cc5c(cc3OC)CCN(C)[C@@H]5C2)OCO4)CCN1C ?
output: -54.9% (active)

input: // returns reported growth for input CCCCCCCC[C@@H]1N[C@@H](C(=O)OC)Cc2c1[nH]c1ccccc21
output: 94.2% (inactive)

input: Consider the compound shown here: CC1CCN(S(=O)(=O)c2ccc(S(=O)(=O)N3CCCC(c4nc5c(nnn5Cc5cccc(Cl)c5)c(=O)[nH]4)C3)cc2)CC1 (configuration not stated) What is its recorded growth?
output: 62% (inactive)

input: Dear colleague, I am looking for the recorded growth of the following compound: c1cc2c(ccc3[nH]c(-c4ccc5[nH]ncc5c4)c4c(c32)CCCC4)n1
output: 67.3% (inactive)

###

Tested on: SNB-75 CNS
Experiment: NCI-60 one-dose screen, 48 h (100 = growth as untreated, 0 = no growth, -100 = all killed)
Details: 10 µM unless noted
This is part of a sample that, as a whole, favours compounds with a hit. Of some 83,000 tested, about 20% had one in any assay. Active and inactive are the calls of the source. The calls were made as follows: active = growth percent below 10; inactive = the rest.
RECORDED ENDPOINT: growth

Here's what some known entries look like.
{"columns": ["COMPOUND", "growth"],
 "data": [
  ["Cc1ccc(NC(=O)Cn2cc(CN3CCN(c4ccnc5cc(Cl)ccc45)CC3)nn2)cc1", "70.7% (inactive)"],
  ["Cc1ccc2c(c1)=C/C(=C\\c1cc(-c3ccccc3)oc1O)C(=O)N=2", "93.5% (inactive)"],
  ["O=C1NC(=O)C(Cc2ccc(OCc3ccc(-c4ccc(Cl)cc4Cl)cc3)cc2)S1 (stereo unspecified)", "59.1% (inactive)"],
  ["CC1(C)CC(=O)C2=C(C1)N(c1ccc(OC(F)(F)F)cc1)C(N)=C(C#N)C2c1ccc(Br)cc1F (stereo unspecified)", "54.1% (inactive)"],
  ["CCOc1ccc(NC(=O)CSc2oc(-c3ccccc3)nc2S(=O)(=O)c2ccc(C)cc2)cc1", "45.3% (inactive)"]
]}

input: Give the measured growth of O=C1C(=O)N(Cc2ccc(-c3ccccc3)cc2)c2ccc(OC(F)(F)F)cc21 .
output: 39.3% (inactive)

input: Which measured growth value corresponds to COc1ccc(F)cc1/C=C/C(=O)/C=C(/C=C/c1cc(F)ccc1OC)OB(F)F ?
output: 83.7% (inactive)

input: // growth lookup, key: Cc1ccc2c(Cn3cc(CSc4nc5ccccc5o4)nn3)cc(=O)oc2c1
output: 105% (inactive)
